50% inhibition concentration, Regnase-1 phosphorylation by TBK1 (AlphaScreen) reference
- target: T1, C-terminal human Regnase-1 (amino acids 301 to 599) with N-terminal FLAG tag and C-terminal BirA recognition … (human, UniProt Q5D1E8 301-599)
- T1 sequence: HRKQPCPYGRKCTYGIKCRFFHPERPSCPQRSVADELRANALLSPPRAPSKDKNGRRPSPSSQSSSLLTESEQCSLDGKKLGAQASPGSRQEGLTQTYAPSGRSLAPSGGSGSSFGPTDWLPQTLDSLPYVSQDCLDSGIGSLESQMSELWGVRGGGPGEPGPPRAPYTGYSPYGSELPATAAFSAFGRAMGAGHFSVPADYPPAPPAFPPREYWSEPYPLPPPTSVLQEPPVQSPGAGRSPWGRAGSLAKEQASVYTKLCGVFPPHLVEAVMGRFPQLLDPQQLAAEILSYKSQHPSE
- assay method text: cell-based or functional assay

- binder: "XDIWFDYWDWD (HELM PEPTIDE1{[meA].D.I.W.F.D.Y.W.D.W.D.[C1CCN([*:1])C1]}$PEPTIDE1,PEPTIDE1,1:R1-11:R3$$$V2.0; SMILES CC[C@H](C)[C@@H]1NC(=O)[C@H](CC(=O)O)NC(=O)[C@H](C)N(C)C(=O)C[C@@H](C(=O)N2CCCC2)NC(=O)[C@H](Cc2c[nH]c3ccccc23)NC(=O)[C@H](CC(=O)O)NC(=O)[C@H](Cc2c[nH]c3ccccc23)NC(=O)[C@H](Cc2ccc(O)cc2)NC(=O)[C@H](CC(=O)O)NC(=O)[C@H](Cc2ccccc2)NC(=O)[C@H](Cc2c[nH]c3ccccc23)NC1=O) [PP17]"
  endpoint result: "< 0.06 µM"

# 50% inhibition concentration, Regnase-1 phosphorylation by TBK1 (AlphaScreen) of XHSNAWYNIWD (HELM PEPTIDE1{[meA].H.S.N.A.W.Y.N.I.W.D.[C1CCN([*:1])C1]}$PEPTIDE1,PEPTIDE1,1:R1-11:R3$$$V2.0; SMILES CC[C@H](C)[C@@H]1NC(=O)[C@H](CC(N)=O)NC(=O)[C@H](Cc2ccc(O)cc2)NC(=O)[C@H](Cc2c[nH]c3ccccc23)NC(=O)[C@H](C)NC(=O)[C@H](CC(N)=O)NC(=O)[C@H](CO)NC(=O)[C@H](Cc2c[nH]cn2)NC(=O)[C@H](C)N(C)C(=O)C[C@@H](C(=O)N2CCCC2)NC(=O)[C@H](Cc2c[nH]c3ccccc23)NC1=O) [PP5] = 40.4 µM

Reference source: patent US20250018014A1
